target_or_system: UniProt:P29466
Sequence (P29466 120-297 limits assumed): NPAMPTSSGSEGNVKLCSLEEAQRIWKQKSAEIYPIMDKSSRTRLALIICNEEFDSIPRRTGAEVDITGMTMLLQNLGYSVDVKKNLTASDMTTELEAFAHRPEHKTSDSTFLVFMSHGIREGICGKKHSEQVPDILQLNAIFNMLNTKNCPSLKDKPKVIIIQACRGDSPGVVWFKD
Sequence (P29466 317-404 limits assumed): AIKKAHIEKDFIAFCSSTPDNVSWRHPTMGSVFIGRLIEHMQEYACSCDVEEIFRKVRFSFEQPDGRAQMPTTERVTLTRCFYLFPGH
method: Inhibition of recombinant human caspase-1 expressed in Escherichia coli using Ac-YVAD-AMC as substrate preincubated for 30 mins before substrate addition measured after 2 hrs
pIC50: −log10 of the molar value.
attribute_measured: pIC50

Please review the entries below; each comes with its answer.
{"compound": "O=C1C(=O)N(Cc2ccc([N+](=O)[O-])cc2)c2ccc(S(=O)(=O)N3CCC[C@H]3CF)cc21", "pIC50": "< 5.00"}
{"compound": "O=C1C(=O)N(Cc2ccc(OCCF)cc2)c2ccc(S(=O)(=O)N3CCC[C@H]3COc3ccccc3)cc21", "pIC50": "< 5.00"}
{"compound": "O=C1C(=O)N(Cc2ccc(Cl)cc2)c2ccc(S(=O)(=O)N3CCC[C@H]3CF)cc21", "pIC50": "< 5.00"}

Report pIC50 for O=C1C(=O)N(Cc2ccccc2I)c2ccc(S(=O)(=O)N3CCC[C@H]3CF)cc21 please.
6.28

For the compound O=C1C(=O)N(Cc2cccc(I)c2)c2ccc(S(=O)(=O)N3CCC[C@H]3CF)cc21 , what pIC50 is on record?
5.77

Please give the measured pIC50 for this compound: COc1ccc(CN2C(=O)C(=O)c3cc(S(=O)(=O)N4CCC[C@H]4CF)ccc32)cc1
< 5.00

----------
Property: logP; scope: individual molecules
method: Lipophilicity, log P of the compound by HPLC method
Assay type: physicochemical
Please reply with the number alone, leaving off any unit.

Please review the following examples before continuing.
{"molecule": "O=C1C(=O)N(Cc2ccc(I)cc2)c2ccc(S(=O)(=O)N3CCC[C@H]3CF)cc21", "logP": 3.31}
{"molecule": "O=C1C(=O)N(Cc2ccc(OCCF)cc2)c2ccc(S(=O)(=O)N3CCC[C@H]3CF)cc21", "logP": 2.33}
{"molecule": "COc1ccc(CN2C(=O)C(=O)c3cc(S(=O)(=O)N4CCC[C@H]4CF)ccc32)cc1", "logP": 2.65}
{"molecule": "O=C1C(=O)N(Cc2cccc([N+](=O)[O-])c2)c2ccc(S(=O)(=O)N3CCC[C@H]3CF)cc21", "logP": 2.28}
{"molecule": "COC[C@@H]1CCCN1S(=O)(=O)c1ccc2c(c1)C(=O)C(=O)N2Cc1ccc(OCCF)cc1", "logP": 2.08}

Now let's try a different one.
Given O=C1C(=O)N(Cc2ccccc2)c2ccc(S(=O)(=O)N3CCC[C@H]3CF)cc21 , state its recorded logP.
2.61

----------
target_or_system: Caspase-7 (Homo sapiens, UniProt P55210)
Sequence (P55210 whole entry): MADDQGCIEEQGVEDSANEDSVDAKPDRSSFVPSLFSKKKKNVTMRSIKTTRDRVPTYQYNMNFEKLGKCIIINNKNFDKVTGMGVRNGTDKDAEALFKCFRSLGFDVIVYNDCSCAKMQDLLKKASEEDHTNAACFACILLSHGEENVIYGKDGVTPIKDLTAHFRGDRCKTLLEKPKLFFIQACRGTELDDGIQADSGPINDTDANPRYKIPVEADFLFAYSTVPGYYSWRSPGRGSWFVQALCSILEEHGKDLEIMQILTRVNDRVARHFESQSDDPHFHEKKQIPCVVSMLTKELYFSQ
method: Inhibition of recombinant human caspase-7 expressed in Escherichia coli using Ac-DEVD-AMC as substrate preincubated for 30 mins before substrate addition measured after 2 hrs
IC50 overview
Numbers only; they are read as nM.

Consider the worked cases shown below.
{"molecule": "O=C1C(=O)N(Cc2ccc(OCCF)cc2)c2ccc(S(=O)(=O)N3CC4CNCC4C3)cc21 (stereo not drawn)", "attribute_measured": "IC50", "units_of_measure": "nM", "result_value": 3510}
{"molecule": "O=C1C(=O)N(Cc2ccc(Br)cc2)c2ccc(S(=O)(=O)N3CCC[C@H]3CF)cc21", "attribute_measured": "IC50", "units_of_measure": "nM", "result_value": 15.9}

Attention now shifts to the item below.
Entry under review: COC[C@@H]1CCCN1S(=O)(=O)c1ccc2c(c1)C(=O)C(=O)N2Cc1ccc(OCCF)cc1 . Reported IC50?
4.6
